# Tested on: CD2F1 mice, L1210 leukemia ip, survival T/C
# EXPERIMENTAL_PROTOCOL: NCI In Vivo Anticancer Drug Screen. Data for tumor model L1210 Leukemia (intraperitoneal) in CD2F1 (CDF1) mice
# EXPERIMENTAL_CONDITIONS: endpoint: mean survival time; dose: 100.0 mg/kg/injection; schedule: Q04DX003 (ip); vehicle: saline with Tween-80; higher = longer survival
Inconclusive results and toxic doses are left out.
Assignment: determine reported T/C for the given compounds.

Sample records with T/C:
Oc1ccc2ccccc2c1Cc1ccccc1    101 % of control
COc1cc(/C=N/n2cnnc2)cc(OC)c1OC    101 % of control
CCCC(=O)c1ccc(C)cc1    97 % of control
CNC(=O)NNc1ccccc1    102 % of control
O=C(NC1CCCCC1)NC1CCCCC1    100 % of control
OCC(O)C1OC(SCc2ccccc2)C(O)C(O)C1O (configuration not stated)    91 % of control

Report T/C for each item below.
1. COc1ccc(C[C@@H]2NC[C@@H](O)[C@@H]2OC(C)=O)cc1
2. CC(=O)Nc1ccc(S(=O)(=O)F)cc1
3. O=C1COC(C(Cl)(Cl)Cl)CN1 (configuration not stated)
4. CCC(=O)Nc1ccccc1Cl
5. c1ccc([CH2][Pb]([c]2ccccc2)([c]2ccccc2)[c]2ccccc2)cc1

### Response
1. 105 % of control
2. 94 % of control
3. 102 % of control
4. 103 % of control
5. 100 % of control

###

Assignment: determine reported T/C for the given compounds.
# Tested on: CD2F1 mice, L1210 leukemia ip, survival T/C
# EXPERIMENTAL_PROTOCOL: NCI In Vivo Anticancer Drug Screen. Data for tumor model L1210 Leukemia (intraperitoneal) in CD2F1 (CDF1) mice
# EXPERIMENTAL_CONDITIONS: endpoint: mean survival time; dose: 200.0 mg/kg/injection; schedule: Q04DX003 (ip); vehicle: saline with Tween-80; higher = longer survival
Toxic doses and inconclusive results are not listed.

Sample records with T/C:
NC(=O)C#CC(N)=O    92 % of control
N#CCCOS(=O)(=O)c1cccc([N+](=O)[O-])c1    101 % of control
CC1(C)CC(C)(c2ccc(O)cc2)c2ccccc2O1 (stereo unspecified)    92 % of control

Report T/C for each item below.
1. Cc1ccc(NC(=O)c2ccccc2Cl)c(C)c1
2. CC(C(=O)NN)C(O)C(C)(C)O (stereo unspecified)
3. O=S1(=O)CC(O)C(Br)C1 (stereo unspecified)
4. O=S(CC(O)(c1ccccc1)c1ccccc1)c1ccccc1 (stereo unspecified)
5. Clc1cc(Cl)c(C[N+]23CN4CN(CN(C4)C2)C3)cc1Cl

### Response
101 % of control
96 % of control
101 % of control
97 % of control
104 % of control

###

# Tested on: CD2F1 mice, L1210 leukemia ip, survival T/C
# EXPERIMENTAL_PROTOCOL: NCI In Vivo Anticancer Drug Screen. Data for tumor model L1210 Leukemia (intraperitoneal) in CD2F1 (CDF1) mice
# EXPERIMENTAL_CONDITIONS: endpoint: mean survival time; dose: 100.0 mg/kg/injection; schedule: Q04DX003 (ip); vehicle: saline with Tween-80; higher = longer survival
Inconclusive results and toxic doses are left out.
RECORDED_METRIC: T/C

Sample records with T/C:
C1=C\CCCCCCCC/1    100 % of control
C1CC1C(=NN=C(C1CC1)C1CC1)C1CC1    86 % of control
Oc1ccc(N=Nc2ccccn2)c(O)c1    97 % of control
O=C(COc1cccc(Cl)c1)NCc1ccccc1    99 % of control

Now turn to the next molecule.
### Prompt Which T/C reading was recorded for the molecule CN(C)S(=O)(=O)CC(O)(c1ccccc1)c1ccccc1 ?
### Response 103 % of control
